The reported numbers originate from the supplement of paper PMC10567573.

B1: PLD5 (parent)
chain: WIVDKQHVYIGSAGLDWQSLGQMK

Variants of: B1
Assay: protein stability index of a GFP-peptide fusion (GPS, HEK-293T) (PSI 1-6); higher = more stable;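 further: lentivirally expressed fusions sorted by FACS into six bins by GFP to DsRed ratio, PSI derived from sequencing read proportions per bin multiplied by bin number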
Settings: c terminus: a fixed tail appended
Rule: criterion met for protein stability index not less than 2, criterion not met for anything less.

Answered cases to consult:
WIVDKQHVYIGSAALDWQSLGQMK
criterion not met
WIVDKQHVYIGSAGLDWQSLGQMW
criterion met
WIVDKQHVYIGSFGLDWQSLGQMK
criterion met
WIVDKQHVYIGSAGADWQSLGQMK
criterion not met
WIVDKQHVYIGSAGLDWQSLGQWK
criterion met
WIVDKQMVYIGSAGLDWQSLGQMK
criterion met
WIVDKQHVYIASAGLDWQSLGQMK
criterion not met
WIVDKQHVYIGSAGLDWQSLAQMK
criterion met
WIMDKQHVYIGSAGLDWQSLGQMK
criterion not met
WIVDKQHVYIGSAVLDWQSLGQMK
criterion met

Kindly review the next variant as well.
Request: Check this variant for protein stability index at or above 2: WIVDRQHVYIGSAGLDWQSLGQMK
Result: criterion not met
